Origin of the recorded values: paper PMC8458242

Tested on: WS1 cells
Test: Viability assay in WS1 cell cultures
Assay type: cell-based, human
Conditions: read-out: Cytotoxicity CC50; WS1 cell line, MTT, three days
Checkbox rule: CC50 lower than 300 µM = 1; CC50 not lower than 300 µM = 0.

[
  {
    "molecule": "Cc1cn([C@H]2C[C@H](N=[N+]=[N-])[C@@H](COC(=O)Cn3c(=O)ccn(CCCOc4ccc(Br)cc4)c3=O)O2)c(=O)[nH]c1=O [3a]",
    "assigned.category": 0
  },
  {
    "molecule": "Cc1cn([C@H]2C[C@H](N=[N+]=[N-])[C@@H](COC(=O)Cn3c(=O)ccn(CCCCCCCCCCCCOc4ccc(Br)cc4)c3=O)O2)c(=O)[nH]c1=O [3f]",
    "assigned.category": 1
  },
  {
    "molecule": "Cc1cn([C@H]2C[C@H](N=[N+]=[N-])[C@@H](COC(=O)Cn3c(=O)ccn(CCCCCCOc4ccc(Br)cc4)c3=O)O2)c(=O)[nH]c1=O [3c]",
    "assigned.category": 0
  },
  {
    "molecule": "Cc1cn([C@H]2C[C@H](N=[N+]=[N-])[C@@H](COC(=O)Cn3c(=O)ccn(CCCCCCCCCCOc4ccc(Br)cc4)c3=O)O2)c(=O)[nH]c1=O [3e]",
    "assigned.category": 1
  },
  {
    "molecule": "Cc1cn([C@H]2C[C@H](N=[N+]=[N-])[C@@H](COC(=O)Cn3c(=O)ccn(CCCCCCCCOc4ccc(Br)cc4)c3=O)O2)c(=O)[nH]c1=O [3d]",
    "assigned.category": 0
  }
]

Then there is this molecule:
Q: API: query returns whether the molecule falls strictly under 300 µM in CC50. Query: Cc1cn([C@H]2C[C@H](N=[N+]=[N-])[C@@H](COC(=O)Cn3c(=O)ccn(CCCCCOc4ccc(Br)cc4)c3=O)O2)c(=O)[nH]c1=O [3b]
A: 1
